Cited source for all entries: ChEMBL document CHEMBL3120101

# IC50 values compiled below
Target sequence: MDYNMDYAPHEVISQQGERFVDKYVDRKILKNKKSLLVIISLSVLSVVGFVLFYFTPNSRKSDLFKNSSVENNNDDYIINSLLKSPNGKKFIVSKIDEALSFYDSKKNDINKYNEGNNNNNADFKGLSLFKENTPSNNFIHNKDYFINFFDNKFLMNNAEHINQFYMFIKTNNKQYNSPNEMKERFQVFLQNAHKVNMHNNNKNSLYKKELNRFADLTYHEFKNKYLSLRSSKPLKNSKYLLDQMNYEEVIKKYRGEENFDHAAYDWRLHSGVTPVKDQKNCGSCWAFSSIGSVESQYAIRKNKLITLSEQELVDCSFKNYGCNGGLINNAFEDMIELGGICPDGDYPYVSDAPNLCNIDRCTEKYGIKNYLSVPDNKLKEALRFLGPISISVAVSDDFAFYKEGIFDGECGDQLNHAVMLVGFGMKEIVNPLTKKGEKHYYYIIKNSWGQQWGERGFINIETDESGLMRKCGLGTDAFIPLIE

Record excerpt, results attached:
Substance Smiles	IC50
CC(=O)SCC(=O)[C@H](CCc1ccccc1)NC(=O)[C@@H]1C[C@@H](O)CN1C(=O)OCc1ccccc1	> 50 µM
CC1(C)OC[C@@H](C(=O)N[C@@H](CCc2ccccc2)C(=O)CO)N1C(=O)OCc1ccccc1	> 50 µM
CC(=O)OCC(=O)[C@H](CCc1ccccc1)NC(=O)C1(NC(=O)OCc2ccccc2)CCSCC1	33.9 µM
O=C(CO)[C@H](CCc1ccccc1)NC(=O)[C@@H]1Cc2ccccc2CN1C(=O)OCc1ccccc1	> 50 µM
CC(=O)SCC(=O)[C@H](CCc1ccccc1)NC(=O)[C@@H]1CCCN1C(=O)OCc1ccccc1	> 50 µM
CC(=O)OCC(=O)[C@H](CCc1ccccc1)NC(=O)[C@@H]1COC(C)(C)N1C(=O)OCc1ccccc1	> 50 µM
O=C(CSCCCc1ccccc1)[C@H](CCc1ccccc1)NC(=O)[C@@H]1CCCN1C(=O)OCc1ccccc1	48.1 µM

Okay, now this molecule:
Looking up "O=C(CO)[C@H](CCc1ccccc1)NC(=O)[C@@H]1C[C@@H](O)CN1C(=O)OCc1ccccc1" , I found its IC50 recorded as 0.08 µM
